Test: The amount of unchanged tracer in baboon plasma was determined 10 min after injection of the carbon-11 labeled compound
Format: ADME, cell-free
Details: papio hamadryas, read-out: Unchanged tracer
MEASUREMENT_KIND: remaining at 10 min (%)
One number for each entry, in %.

C#CCN(C)[C@@H](C)Cc1ccc(F)cc1    61
C#CCN([11CH3])[C@H](C)Cc1ccc(F)cc1    50

Kindly consider the entry below.
**Query** Reported remaining at 10 min for C#CCN(C)C(C)Cc1ccc(F)cc1 (stereo not drawn) : what is it?
**Result** 43

These measurements were taken from ChEMBL document CHEMBL1124851.
